Data origin: patent US6822146B2

- System: Homozygous resistant inbred lines, BC3-M4M12 (I), BC3-M4M11 (J) and BC3-M4M7 (K)
- assay_comment: Test A summary, homozygous resistant inbred lines
- condition_info: in vivo
endpoint_name: tolerance of homozygous resistant inbred lines I, J, K

{"compound": "COC(=O)c1ccccc1S(=O)(=O)NC(=O)Nc1nc(C)nc(OC)n1 [Metsulfuron-methyl, metsulfuron-methyl]", "tgt": "Homozygous resistant inbred lines, BC3-M4M12 (I), BC3-M4M11 (J) and BC3-M4M7 (K)", "result": "resistant"}
{"compound": "COC(=O)c1ccccc1S(=O)(=O)NC(=O)N(C)c1nc(C)nc(OC)n1 [Tribenuron-methyl, tribenuron-methyl]", "tgt": "Homozygous resistant inbred lines, BC3-M4M12 (I), BC3-M4M11 (J) and BC3-M4M7 (K)", "result": "resistant"}
